Catalogue of inhibition at 1 µM readings, one per entry.
molecular target: FYN (Homo sapiens, UniProt P06241); assay: KINOMEscan competition binding; conditions: read-out: %Inh FYN
Sequence (P06241 whole entry): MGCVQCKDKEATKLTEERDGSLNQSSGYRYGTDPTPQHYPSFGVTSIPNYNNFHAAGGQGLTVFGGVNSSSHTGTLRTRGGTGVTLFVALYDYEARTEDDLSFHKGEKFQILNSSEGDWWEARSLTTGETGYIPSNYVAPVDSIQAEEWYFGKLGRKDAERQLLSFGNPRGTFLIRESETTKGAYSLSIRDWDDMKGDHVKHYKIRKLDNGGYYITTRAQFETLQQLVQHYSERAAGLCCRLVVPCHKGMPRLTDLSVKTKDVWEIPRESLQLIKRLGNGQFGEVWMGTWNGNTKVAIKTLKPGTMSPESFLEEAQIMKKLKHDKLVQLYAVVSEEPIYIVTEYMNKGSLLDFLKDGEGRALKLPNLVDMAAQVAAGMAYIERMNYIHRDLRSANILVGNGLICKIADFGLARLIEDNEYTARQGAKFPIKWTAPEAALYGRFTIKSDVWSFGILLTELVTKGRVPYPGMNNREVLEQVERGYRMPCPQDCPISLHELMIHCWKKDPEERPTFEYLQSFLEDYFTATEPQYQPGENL
Report the value in % with no unit label.

Worked cases, answers included:
Cn1cc(-c2cnc(N)c3c(-c4ccc5c(c4)CCN5C(=O)Cc4ccccc4)csc23)cn1 [UNC10225012A] :: 25
COc1cccc(OC)c1C(=O)Nc1cccc(-c2nn3ccccc3c2-c2ccnc(Nc3cccc(F)c3)n2)c1 [UNC10225310A] :: 22
O=c1cc(N2CCOCC2)nc2n(Cc3cccc(Cl)c3Cl)c(C3CC3)nn12 [UNC10225469A] :: 6

*Q* Would you mind telling me what inhibition at 1 µM value was observed for CS(=O)(=O)Cc1ccc(Nc2nccc(-c3c(-c4cccc(NC(=O)C5CCCCC5)c4)nn4ncccc34)n2)cc1 [UNC10225159A] ?
*A* 1

*Q* What inhibition at 1 µM value was documented for this compound, Cc1ccc(NC(=O)Nc2cccc(C(F)(F)F)c2)cc1 [UNC10225187A] ?
*A* 0
